Attribution: PubChem BioAssay (NCI)

Experiment: NCI Yeast Anticancer Drug Screen. Data for the cln2 rad14 strain (AID 165);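 further: 0% = growth equal to vehicle treated cultures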
Conditions: S. cerevisiae cln2 rad14 strain, at 50.0 µM, active compounds read high
This is part of a sample that, as a whole, favours compounds with a hit. Of some 79,000 tested, about 15% had one in any assay.
Measure: growth inhibition (%)

> print(dat)
                                    compound            measure  experimental.value
 1    Cc1ccc2c(/C=C/c3ccc(N(C)C)cc3)ccnc2c1C  growth inhibition                29.9
 2         Cc1cc(NC(=S)SCc2ccc(Cl)cc2)ccc1Cl  growth inhibition                90.5
 3                       CC(=O)CC[N+](C)(C)C  growth inhibition               -41.7
 4  O=C1c2ccccc2-c2ccc(NC(=O)C3CCCCC3C(=O)O)cc21 (configuration not stated)  growth inhibition                12.7
 5  COc1ccc(/C(=N/O)c2ccccc2C2=Nc3ccccc3C(NCc3ccccc3)O2)cc1C (configuration not stated)  growth inhibition                  83
 6  CCOC(=O)c1[nH]c2cccc3c2c1CC(Br)C3=O (configuration not stated)  growth inhibition                50.6
 7              CN(C)CCC(=O)c1c[nH]c2ccccc12  growth inhibition                31.1
 8                    CCCCCCCCCC/C=C\CC(=O)O  growth inhibition                9.65
 9     [Cl][Pt+2][Cl].[NH-]CC1(C[NH-])CCCCC1  growth inhibition                69.5
10  CC[C@@]1(OC(=O)CN(C)C)C(=O)OCc2c1cc1n(c2=O)Cc2cc3ccccc3nc2-1  growth inhibition                79.8
11  COc1ccc(/C=C2\S/C(=N/Nc3nc(-c4ccccc4)cs3)NC2=O)cc1OC  growth inhibition                  91
12  CSc1ccc2c(c1)C(N1CCN(C)CC1)Cc1ccccc1S2 (configuration not stated)  growth inhibition                  76
